Test system: CAKI-1 renal
Assay: NCI-60 one-dose screen, 48 h (100 = growth as untreated, 0 = no growth, -100 = all killed)
Details: 10 µM unless noted
The panel holds about 83,000 compounds, 20% with a hit somewhere; the sample as a whole holds those more often.
Checkbox rule: growth lower than 30% = rule met; growth not lower than 30% = rule not met.

MOLECULE	LABEL
Nc1c(Br)cc([N+](=O)[O-])cc1[N+](=O)[O-]	rule not met
CC1(C)N=C(N)N=C(N)N1c1ccc(CCC(=O)Nc2cccc(S(=O)(=O)F)c2)cc1	rule met
Cc1cc(N(CCCl)CCCl)ccc1C=Nc1ccc2ccccc2c1	rule met
CC(=O)O[C@H]1C[C@H](O[C@H]2[C@@H](O)C[C@H](O[C@H]3[C@@H](O)C[C@H](O[C@H]4CC[C@@]5(C)C(CCC6C5C[C@@H](O)[C@]5(C)[C@@H](C7=CC(=O)OC7)CC[C@]65O)C4)O[C@@H]3C)O[C@@H]2C)O[C@H](C)[C@H]1O[C@@H]1O[C@H](CO)[C@@H](O)[C@H](O)[C@H]1O (stereo not given in full)	rule met
C=CCC1(CC)C(=O)NC(=S)NC1=O	rule not met
[Cl][Hg][n]1cnc2c(Cl)c(Cl)c(Cl)cc21	rule not met
O=C(CC1(O)C(=O)Nc2ccc(F)cc21)c1ccc(C(=O)NCC2CCC3(CC2)OOC2(CCCCC2)OO3)cc1 (stereo not given)	rule met
CC(=O)Nc1ccc(Cc2ccc(NC(C)=O)cc2)cc1	rule not met

Could you please tell me whether growth recorded for Cc1nnc([S-])s1.[Au+].c1ccc([PH+](c2ccccc2)c2ccccc2)cc1 is less than 30%? rule met

A record lists C=CCc1ccc(OC(=O)Cc2ccccc2)c(OC)c1 . Is its growth below 30%? rule not met

Does CC1=C(SCCC(=O)OCC(=O)NCCC[Te]c2ccccc2)C(=O)c2ccccc2C1=O have growth strictly under 30%? rule met

Decide: growth of Cc1cccc(N(C)c2cccc3c2C(=O)[Se]C3)c1C strictly below 30%? rule not met

Hello, is growth of the following molecule strictly smaller than 30%? CO[C@@H]([CH2][Hg][S]C#N)[C@@H]([CH2][Hg][S]C#N)OC rule not met

* * *

Test system: HL-60(TB) leukemia
Assay: NCI-60 one-dose screen, 48 h
Details: 10 µM unless noted
Compounds without any hit were thinned out: in the full panel of roughly 83,000, 20% have a hit. Active and inactive are the calls of the source. The calls were made as follows: active = growth percent below 10; inactive = the rest.
Assign a class; possible classes are true (1) for active, false (0) for inactive

Please state the recorded outcome for this molecule: O=C(NCCN1CCOCC1)OCc1nc2nc(Cl)nc(N3CCOCC3)c2[nH]1 true (1)

Hey, what did the test say about COc1cc(NC(=O)c2cncnc2Nc2ccc3c(ccn3Cc3cccc(F)c3)c2)cc(OC)c1 ? false (0)

Give the logged outcome of this assay for the following molecule: CNC(=O)c1cc(Cn2nc(C)c(NC(=O)Nc3ccc(Cl)c(C(F)(F)F)c3)c2C)ccn1 false (0)

* * *

System: HL-60(TB) leukemia
Experiment: NCI-60 one-dose screen, 48 h (100 = growth as untreated, 0 = no growth, -100 = all killed)
Conditions: 10 µM unless noted
The panel holds about 83,000 compounds, 20% with a hit somewhere; the sample as a whole holds those more often.
Recorded growth, one value per entry.
Respond numerically; units are % and should not be typed.

Worked cases, growth given:
COMPOUND	growth [%]
O=C1OC(N(Cc2ccc(Cl)cc2)c2ccccc2)c2ccccc21 (stereo unspecified)	93.8
CN(C)c1ccc(C2(Cl)c3ccccc3N(C)c3ccccc32)cc1	17.5
O=C(O)/C=C/C(=O)NCc1ccccc1	105
COc1ccc2c(c1)c(-c1noc(-c3cn(C)c4ncc(F)cc34)n1)cn2C	84.6
O=C(O)C#Cc1ccc(Cl)cc1	94.1

Tell us which growth value is on record for O=C(O)c1ccc2c3c(ncnc13)-c1ccccc1C2=O 85.1

Look up and report measured growth for this entry: COc1ccc(CCO)cc1 64.3

* * *

Test system: HL-60(TB) leukemia
Assay: NCI-60 one-dose screen, 48 h
Conditions: 10 µM unless noted
The panel holds about 83,000 compounds, 20% with a hit somewhere; the sample as a whole holds those more often. Calls of active or inactive are those of the source. Rule for the calls: active = growth percent below 10; inactive = the rest.
Returns: one label drawn from t for active, f for inactive

Observe how each entry below is paired with its result.
COMPOUND	LABEL
CC1(C)OC2COC3(C(=O)O)OC(C)(C)OC3C2O1 (stereo unspecified)	f
CCCCOc1ncnc2nc[nH]c12	f
Fc1ccc([I+]c2ccc(F)cc2)cc1	f
ClC1=C2NC=NC2n2c(nnc2-c2ccc(Cl)cc2)N1 (stereo unspecified)	f
O=c1[nH]c(=O)c2cc(Cl)cc(Cl)c2[nH]1	f
O=S(=O)(O)CCI	f

Given CCN1CCN(Cc2ccc(Cc3ncc(F)c(-c4cc(F)c5nc(C)n(C(C)C)c5c4)n3)nc2)CC1 , state the outcome it received in this test. f

I'd appreciate the recorded outcome for COc1cccc(-c2nn(-c3ccccc3)cc2-c2ccnc(NCCCNS(=O)(=O)c3ccc(Cl)cc3)c2)c1 from this test. f

Please share the test call associated with COc1ccc(-c2cc(-c3ccccc3)nc(N3CCN(CCNc4ccnc5cc(Cl)ccc45)CC3)n2)cc1 . t

Per the records of this test, what outcome belongs to CCCC1OC(c2ccco2)OCC1CC (stereo unspecified) ? f

Write down the call the test reported for this compound. Item: Cc1ccc(-n2nc(C(C)(C)C)cc2NC(=O)NCc2cc(F)ccc2Oc2ccc3c(cnn3CCO)c2)cc1 t

Could you kindly confirm the outcome this assay logged for COc1cccc2ccc(CC(O)(c3ccccc3)c3ccccc3)nc12 ? f

Entry CCCC[n+]1c(/C=C\c2c(OC)cc(OC)cc2OC)ccc2ccccc21 : call = ? t

Could you please tell me the result logged for CCOC(=O)C(Cc1cc(I)c(O)c(I)c1)NC(=O)c1ccccc1 (stereo unspecified) in this assay? f

// param item: CC(=O)C(/C=N/C(N)=O)=C(/C)O ; yields the recorded call f

What did the test return for COc1ccc2nc(C)cc(Nc3ccccc3O)c2c1 ? t

GET /call?item= COc1cc(C(=O)n2nc(N3CCOCC3)c3cc(-n4cccc4)ccc32)cc(OC)c1OC returns the recorded outcome of this test. f

Recorded test call requested for Cc1cc(N(CCCNc2ccnc3cc(Cl)ccc23)Cc2ccc3c(c2)OCO3)nc(N2CCCCC2)n1 t

// param item: O=C(NC1CCCCC1)OCc1c(COC(=O)NC2CCCCC2)c(-c2ccc(Cl)c(Cl)c2)n2c1CCC2 ; yields the recorded call t

# outcome recorded in this test, key = COc1cc(/C=C/C(=O)c2ccc(NC(=O)CN3CCN(c4cc5c(cc4F)c(=O)c(C(=O)O)cn5C4CC4)CC3)cc2)cc(OC)c1OC t

In this assay, the call recorded for O=C(Cc1ccc(/C=C/C(=O)c2ncc[nH]2)cc1)Nc1ccc(F)cc1 was what? t

Could you check what this test reported for Cc1ccc(S(=O)(=O)Oc2ccc3sc4cccc(NCCN(C)C)c4c(=O)c3c2)cc1 ? t

Identify the outcome logged in this assay for the compound shown: NS(=O)(=O)c1ccc(-n2nc(C(=O)N/N=C\c3ccc(F)cc3)cc2-c2ccc(Cl)cc2)cc1 f

For C/C(Cc1ccc(Cl)cc1)=C(\c1ccc(OCCCN(C)C)cc1)c1ccc(OC(=O)Cc2ccccc2)cc1 , what call appears in the results of this test? f

* * *

# maps each entry to its growth
System: TK-10 renal
Test: NCI-60 one-dose screen, 48 h (100 = growth as untreated, 0 = no growth, -100 = all killed)
Conditions: 10 µM unless noted
Procedure: Growth inhibition of the TK-10 human tumor cell line is measured as a screen for anti-cancer activity. Cells are grown in 96 well plates and exposed to the test compound for 48 hours. Compounds are tested at a single concentration, which is 10^-5 M for most compounds. The reported endpoint is percent growth (GI% or GIPRCNT), where numbers from 0 - 100% represent growth inhibition, and numbers from -100% - 0 represent cell death. For example, a value of 40 represents 60% growth inhibition. […]
Compounds without any hit were thinned out: in the full panel of roughly 83,000, 20% have a hit.
Give just the number in %; leave the unit off.

Consider the following illustrative entries.
1. Nc1c(Br)cc([N+](=O)[O-])cc1[N+](=O)[O-] 114
2. CO[C@@H]1[C@H](OC(=O)NC(=O)CCl)CC[C@]2(CO2)[C@H]1[C@@]1(C)O[C@@H]1CC=C(C)C 92.6
3. CCOP(=O)(OCC)Oc1ccc(Sc2ccc(OP(=O)(OCC)OCC)cc2)cc1 107

Fill in growth for record O=C(CCCN1CCC2(CC1)C(=O)NCN2c1ccc(F)cc1)c1ccc(F)cc1 102

Using the record for C=C=[CH][Sn]([c]1ccccc1)([c]1ccccc1)[c]1ccccc1 , state its measured growth. -74.7

* * *

Tested on: HL-60(TB) leukemia
Assay: NCI-60 one-dose screen, 48 h (100 = growth as untreated, 0 = no growth, -100 = all killed)
Conditions: 10 µM unless noted
The panel holds about 83,000 compounds, 20% with a hit somewhere; the sample as a whole holds those more often.
VALUE_TYPE: growth (%)
Reply numerically in %, unit not repeated.

Use the examples below as a reference point.
COMPOUND	ENDPOINT_UNIT	growth
O=C(O)C1CCCCN1c1nc(Cl)nc(Cl)n1 (centres undefined)	%	97.8
COc1cc2nc(Cc3ccc(C)cc3)[nH]c(=O)c2cc1OC	%	98.7
O=C1Nc2ccc(Br)cc2/C1=N\N=C/c1cn(Cc2ccccc2)c2ccccc12	%	84.4

Turning now to a further record.
Indicate its recorded growth; the compound in question is COc1cc(-c2ccc(-[n+]3nc(-c4ccc([N+](=O)[O-])cc4)nn3-c3ccc([N+](=O)[O-])cc3)c(OC)c2)ccc1-[n+]1nc(-c2ccc([N+](=O)[O-])cc2)nn1-c1ccc([N+](=O)[O-])cc1 14.2
